# testedSystem: CHOK1 cells engineered to overexpress human CCR2 (Homo sapiens)
# Construct: expressed in transfected cells; host or cells: CHOK1 cells
# method: Antibody dependent cellular cytotoxicity (ADCC) reporter assay (Example 199)
# Assay type: cell-based
# experimentalConditions: with anti-cotinine antibody SEQ ID NO: 11/12; CHOK1-human CCR2 target cells, Jurkat FcγRIIIa NFAT-luciferase reporter cells; 12-18 hours; read-out: ADCC Reporter Assay pEC50 (converted)
The recorded EC50 of each item maps onto one of these classes: bin A (below 2 nM), bin B (2 nM to below 5 nM), bin C (5 nM or more)

Ask: Quick check: band for CN1C(=O)C[C@H](C(=O)NCCOCCOCCC(=O)N[C@H]2CC[C@@H](C(=O)N[C@@H]3C[C@H](NC(C)(C)C)CC[C@@H]3N3CC[C@H](Nc4ncnc5ccc(C(F)(F)F)cc45)C3=O)CC2)[C@H]1c1cccnc1
Reply: bin C

Ask: Quick check: band for CC(C)N(C)[C@@H]1CC[C@H](N2CC[C@H](Nc3ncnc4ccc(C(F)(F)F)cc34)C2=O)[C@H](NC(=O)COCCNC(=O)CCOCCNC(=O)CCOCCNC(=O)[C@H]2CC(=O)N(C)[C@@H]2c2cccnc2)C1
Reply: bin B

Ask: Quick check: band for CC(C)N(C)[C@@H]1CC[C@H](N2CC[C@H](Nc3ncnc4ccc(C(F)(F)F)cc34)C2=O)[C@H](NC(=O)C2CCN(C3CCN(C(=O)CCCCCCCCCNC(=O)[C@@H]4CC(=O)N(C)[C@H]4c4cccnc4)CC3)CC2)C1
Reply: bin A

Ask: Quick check: band for CC(C)N(C)[C@@H]1CC[C@H](N2CC[C@H](Nc3ncnc4ccc(C(F)(F)F)cc34)C2=O)[C@H](NC(=O)C23CCC(NC(=O)CCOCCOCCOCCNC(=O)[C@H]4CC(=O)N(C)[C@@H]4c4cccnc4)(CC2)CC3)C1
Reply: bin C

Ask: Quick check: band for CC(C)N(C)[C@@H]1CC[C@H](N2CC[C@H](Nc3ncnc4ccc(C(F)(F)F)cc34)C2=O)[C@H](NC(=O)CCc2ccc(C3CCN(C(=O)CCCCCNC(=O)[C@H]4CC(=O)N(C)[C@@H]4c4cccnc4)CC3)cc2)C1
Reply: bin C

Ask: Quick check: band for CC(C)N(C)[C@@H]1CC[C@H](N2CC[C@H](Nc3ncnc4ccc(C(F)(F)F)cc34)C2=O)[C@H](NC(=O)CCOCCOCCOCCNc2c(NCCNC(=O)[C@H]3CC(=O)N(C)[C@@H]3c3cccnc3)c(=O)c2=O)C1
Reply: bin A

Ask: Quick check: band for CC(C)N(C)[C@@H]1CC[C@H](N2CC[C@H](Nc3ncnc4ccc(C(F)(F)F)cc34)C2=O)[C@H](NC(=O)CCOCCNC(=O)[C@H]2CC[C@@H](NC(=O)COCCNC(=O)[C@H]3CC(=O)N(C)[C@@H]3c3cccnc3)CC2)C1
Reply: bin A

Ask: Quick check: band for CC(C)N(C)[C@@H]1CC[C@H](N2CC[C@H](Nc3ncnc4ccc(C(F)(F)F)cc34)C2=O)[C@H](NC(=O)[C@H]2C[C@H](NC(=O)CCCO[C@H]3CC[C@H](OCCNC(=O)[C@H]4CC(=O)N(C)[C@@H]4c4cccnc4)CC3)C2)C1
Reply: bin A

Ask: Quick check: band for CC(C)N(C)[C@@H]1CC[C@H](N2CC[C@H](Nc3ncnc4ccc(C(F)(F)F)cc34)C2=O)[C@H](NC(=O)CCCC(=O)N[C@H]2CC[C@@H](CNC(=O)CCOCCNC(=O)[C@H]3CC(=O)N(C)[C@@H]3c3cccnc3)CC2)C1
Reply: bin A

Ask: Quick check: band for CC(C)N(C)[C@@H]1CC[C@H](N2CC[C@H](Nc3ncnc4ccc(C(F)(F)F)cc34)C2=O)[C@H](NC(=O)COCCCCCCCCCOCCCCCCCNC(=O)[C@H]2CC(=O)N(C)[C@@H]2c2cccnc2)C1
Reply: bin B

Ask: Quick check: band for CN1C(=O)C[C@H](C(=O)NCCOCCOCCOCCOCCOCCOCCOCCOCCC(=O)N[C@@H]2C[C@H](NC(C)(C)C)CC[C@@H]2N2CC[C@H](Nc3ncnc4ccc(C(F)(F)F)cc34)C2=O)[C@H]1c1cccnc1
Reply: bin B

Ask: Quick check: band for CC(C)N(C)[C@@H]1CC[C@H](N2CC[C@H](Nc3ncnc4ccc(C(F)(F)F)cc34)C2=O)[C@H](NC(=O)[C@H]2CC[C@H](N3CCC(C(=O)NCCOCCOCCNC(=O)[C@H]4CC(=O)N(C)[C@@H]4c4cccnc4)CC3)CC2)C1
Reply: bin B

Ask: Quick check: band for CC(C)N(C)[C@@H]1CC[C@H](N2CC[C@H](Nc3ncnc4ccc(C(F)(F)F)cc34)C2=O)[C@H](NC(=O)[C@H]2C[C@H](NC(=O)CCOCCOCCOCCNC(=O)[C@H]3CC(=O)N(C)[C@@H]3c3cccnc3)C2)C1
Reply: bin C

Ask: Quick check: band for CC(C)N(C)[C@@H]1CC[C@H](N2CC[C@H](Nc3ncnc4ccc(C(F)(F)F)cc34)C2=O)[C@H](NC(=O)[C@H]2CC[C@H](C3CCN(C(=O)CCOCCOCCNC(=O)[C@H]4CC(=O)N(C)[C@@H]4c4cccnc4)CC3)CC2)C1
Reply: bin C

----------
# testedSystem: human alpha1 nicotinic acetylcholine (nACh) receptor (Homo sapiens, UniProt P02708+Q07001)
# Sequence (P02708 21-457): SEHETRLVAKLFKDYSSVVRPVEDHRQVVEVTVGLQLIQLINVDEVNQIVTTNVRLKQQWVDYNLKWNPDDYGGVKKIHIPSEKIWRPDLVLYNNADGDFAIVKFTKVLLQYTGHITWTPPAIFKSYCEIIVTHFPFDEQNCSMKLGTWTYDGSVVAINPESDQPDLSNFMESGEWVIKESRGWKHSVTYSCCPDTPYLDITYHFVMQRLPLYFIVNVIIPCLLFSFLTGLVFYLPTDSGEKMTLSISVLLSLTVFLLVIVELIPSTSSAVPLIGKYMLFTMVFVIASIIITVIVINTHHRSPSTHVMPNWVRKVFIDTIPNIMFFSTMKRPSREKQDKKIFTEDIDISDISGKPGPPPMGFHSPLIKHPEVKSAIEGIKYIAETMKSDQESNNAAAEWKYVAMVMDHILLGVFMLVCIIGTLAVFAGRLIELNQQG
# Sequence (P11230 24-501 partner): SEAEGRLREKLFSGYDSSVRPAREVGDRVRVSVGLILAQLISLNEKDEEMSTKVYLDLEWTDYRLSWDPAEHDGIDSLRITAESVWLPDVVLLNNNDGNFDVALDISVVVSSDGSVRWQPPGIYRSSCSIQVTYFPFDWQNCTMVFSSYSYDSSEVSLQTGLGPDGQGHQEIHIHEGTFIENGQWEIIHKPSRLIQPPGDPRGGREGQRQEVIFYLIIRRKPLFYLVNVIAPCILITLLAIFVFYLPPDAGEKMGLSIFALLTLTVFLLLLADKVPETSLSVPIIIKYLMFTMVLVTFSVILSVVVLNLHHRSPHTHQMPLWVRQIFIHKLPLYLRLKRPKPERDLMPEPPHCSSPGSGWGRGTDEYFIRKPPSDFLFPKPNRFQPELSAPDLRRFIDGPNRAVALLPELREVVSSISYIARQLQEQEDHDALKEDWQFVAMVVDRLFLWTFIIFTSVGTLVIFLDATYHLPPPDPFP
# Sequence (Q07001 22-517): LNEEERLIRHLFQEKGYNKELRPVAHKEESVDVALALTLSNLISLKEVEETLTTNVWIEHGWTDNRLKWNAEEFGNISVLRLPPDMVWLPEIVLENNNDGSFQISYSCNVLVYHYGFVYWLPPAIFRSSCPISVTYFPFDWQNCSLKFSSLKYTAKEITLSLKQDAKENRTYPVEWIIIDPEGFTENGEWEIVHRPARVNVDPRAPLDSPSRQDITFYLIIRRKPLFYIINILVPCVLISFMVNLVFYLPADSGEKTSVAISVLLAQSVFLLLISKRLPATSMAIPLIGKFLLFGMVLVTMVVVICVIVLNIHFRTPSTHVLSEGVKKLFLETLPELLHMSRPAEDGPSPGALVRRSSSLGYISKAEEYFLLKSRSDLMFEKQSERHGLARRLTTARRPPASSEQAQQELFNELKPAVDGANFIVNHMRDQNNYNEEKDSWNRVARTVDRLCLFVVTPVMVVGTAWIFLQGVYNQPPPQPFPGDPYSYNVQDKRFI
# method: Nicotinic acetylcholine receptor antagonism assay, IONFlux automated patch clamp (Example 203)
# Type: cell-based
# experimentalConditions: maximum percentage antagonism at maximum concentration tested 100 μM; read-out: Maximum Response (%)
metric: Emax at 100 µM (%)
Answer with a number only, understood to be in %.

The reported Emax at 100 µM value, human alpha1 nicotinic acetylcholine (nACh) receptor (Homo sapiens, UniProt P02708+Q07001), for CC(C)N(C)[C@@H]1CC[C@H](N2CC[C@H](Nc3ncnc4ccc(C(F)(F)F)cc34)C2=O)[C@H](NC(=O)[C@H]2CC[C@@H](NC(=O)CCOCCOCCNC(=O)CCNC(=O)[C@H]3CC(=O)N(C)[C@@H]3c3cccnc3)CC2)C1 [Example 16] reads 47.8

The reported Emax at 100 µM value, human alpha1 nicotinic acetylcholine (nACh) receptor (Homo sapiens, UniProt P02708+Q07001), for CN1C(=O)C[C@H](C(=O)NCCOCCOCCOCCC(=O)N[C@H]2CC[C@@H](C(=O)N[C@@H]3C[C@H](NC(C)(C)C)CC[C@@H]3N3CC[C@H](Nc4ncnc5ccc(C(F)(F)F)cc45)C3=O)CC2)[C@H]1c1cccnc1 [Example 23] reads 50.5

----------
# testedSystem: human alpha1 nicotinic acetylcholine (nACh) receptor (Homo sapiens, UniProt P02708+Q07001)
# method: Nicotinic acetylcholine receptor antagonism assay, IONFlux automated patch clamp (Example 203)
# experimentalConditions: nAChR antagonism; ACh stimulated; patch clamp
Provide the recorded pIC50 for the entries that follow.
# log scale: pIC50 equals minus log10 of the concentration in mol/L

// pIC50 lookup, molecule = CC(C)N(C)[C@@H]1CC[C@H](N2CC[C@H](Nc3ncnc4ccc(C(F)(F)F)cc34)C2=O)[C@H](NC(=O)[C@H]2CC[C@H](NC(=O)CCCO[C@H]3CC[C@H](OCCNC(=O)[C@H]4CC(=O)N(C)[C@@H]4c4cccnc4)CC3)CC2)C1 , result: 4.07

// pIC50 lookup, molecule = CC(C)N(C)[C@@H]1CC[C@H](N2CC[C@H](Nc3ncnc4ccc(C(F)(F)F)cc34)C2=O)[C@H](NC(=O)CCOCCOCCNC(=O)CCOCCOCCNC(=O)[C@H]2CC(=O)N(C)[C@@H]2c2cccnc2)C1 , result: 4.49

// pIC50 lookup, molecule = CC(C)N(C)[C@@H]1CC[C@H](N2CC[C@H](Nc3ncnc4ccc(C(F)(F)F)cc34)C2=O)[C@H](NC(=O)CCOCCC(=O)N[C@H]2C[C@H](C(=O)NCCOCCNC(=O)[C@H]3CC(=O)N(C)[C@@H]3c3cccnc3)C2)C1 , result: 4.15

// pIC50 lookup, molecule = CC(C)N(C)[C@@H]1CC[C@H](N2CC[C@H](Nc3ncnc4ccc(C(F)(F)F)cc34)C2=O)[C@H](NC(=O)CCOCCOCCO[C@H]2CC[C@H](OCCNC(=O)[C@H]3CC(=O)N(C)[C@@H]3c3cccnc3)CC2)C1 , result: 4.13

----------
Provide the recorded Emax at 100 µM for the entries that follow.
# testedSystem: human alpha1 nicotinic acetylcholine (nACh) receptor (Homo sapiens, UniProt P02708+Q07001)
# method: Nicotinic acetylcholine receptor antagonism assay, IONFlux automated patch clamp (Example 203)
# Assay type: cell-based
# experimentalConditions: maximum percentage antagonism at maximum concentration tested 100 μM; read-out: Maximum Response (%)
# From the text: Cells expressing human alpha1 nicotinic acetylcholine (nACh) receptor (nAChR) were washed and dissociated using Trypsin containing buffer. Cells were then washed and seeded at a density of 3-5 million cells/mL and allowed to grow for 3 days. […] The receptor was then stimulated via addition of acetylcholine (ACh) and activation of the receptor was monitored via the IONFlux automated patch clamp system. […]
Answer with a number only, understood to be in %.

// Emax at 100 µM lookup, molecule = CC(C)N(C)[C@@H]1CC[C@H](N2CC[C@H](Nc3ncnc4ccc(C(F)(F)F)cc34)C2=O)[C@H](NC(=O)CCOCCOCCO[C@H]2CC[C@H](OCCNC(=O)[C@H]3CC(=O)N(C)[C@@H]3c3cccnc3)CC2)C1 , result: 53

// Emax at 100 µM lookup, molecule = CC(C)N(C)[C@@H]1CC[C@H](N2CC[C@H](Nc3ncnc4ccc(C(F)(F)F)cc34)C2=O)[C@H](NC(=O)[C@H]2CC[C@@H](NC(=O)CCCC(=O)NCCCOCCCNC(=O)[C@H]3CC(=O)N(C)[C@@H]3c3cccnc3)CC2)C1 , result: 44.9

// Emax at 100 µM lookup, molecule = CC(C)N(C)[C@@H]1CC[C@H](N2CC[C@H](Nc3ncnc4ccc(C(F)(F)F)cc34)C2=O)[C@H](NC(=O)[C@H]2C[C@@H](NC(=O)CCOCCNC(=O)CCOCCNC(=O)[C@H]3CC(=O)N(C)[C@@H]3c3cccnc3)C2)C1 , result: 51.5

// Emax at 100 µM lookup, molecule = CC(C)N(C)[C@@H]1CC[C@H](N2CC[C@H](Nc3ncnc4ccc(C(F)(F)F)cc34)C2=O)[C@H](NC(=O)CCOCCC(=O)N[C@H]2C[C@@H](C(=O)NCCOCCNC(=O)[C@H]3CC(=O)N(C)[C@@H]3c3cccnc3)C2)C1 , result: 55.2
